Examples of compounds with documented inhibition at 1 µM follow.
- SYSTEM NAME: human μ-opiate receptor (Homo sapiens)
- Construct: purchased PerkinElmer Life Sciences, Zaventem, Belgium RB-HOM; host or cells: CHO-K1 cells (membrane preparation)
- TEST DETAILS: Affinity for the human μ-opiate receptor ([3H]-naloxone displacement, SPA)
- EXPERIMENTAL CONDITIONS: test substance 1 μmol/l; inhibition of specific [3H]-naloxone binding; CHO-K1 receptor membrane preparation; read-out: μ-Opioid receptor [1 μM] % inhibition
The figure you give is taken to be in %; do not add the unit.

Some compounds with recorded inhibition at 1 µM:
COMPOUND | UNITS | inhibition at 1 µM
Cc1cc(S(=O)(=O)N2CCCCC2CCC(=O)N2CCC(C(CCc3ccccc3)N3CCN(C)CC3)CC2)c(C)cc1Cl (centres unmarked) | % | 52
O=C(CC1CCCN1S(=O)(=O)c1ccc(Cl)c(Cl)c1)N1CCC(C(c2ccccc2)N2CCOCC2)CC1 (centres unmarked) | % | 7
O=C(CC1CCCN1S(=O)(=O)c1ccc(Cl)c(Cl)c1)N1CCC(C(Cc2ccccc2)N2CCOCC2)CC1 (centres unmarked) | % | 16

The compound listed as O=C(CC1CCCCN1S(=O)(=O)c1ccc(Cl)c(Cl)c1)N1CCC(C(Cc2ccccc2)N2CCOCC2)CC1 (centres unmarked) shows inhibition at 1 µM equal to 12

The compound listed as O=C(CC1C(=O)Nc2ccccc2N1S(=O)(=O)c1ccc(Cl)c(Cl)c1)NC1CCC(C(c2ccccc2)N2CCCC2)CC1 (centres unmarked) shows inhibition at 1 µM equal to 71

The compound listed as O=C(CC1C(=O)NCCN1S(=O)(=O)c1ccc(Cl)cc1Cl)NCC1CCC(C(c2ccccc2)N2CCOCC2)CC1 (centres unmarked) shows inhibition at 1 µM equal to 24

The compound listed as CN1CCN(C(c2ccc(F)cc2)C2CCN(C(=O)CC3CCCCN3S(=O)(=O)c3cccc(C(F)(F)F)c3)CC2)CC1 (centres unmarked) shows inhibition at 1 µM equal to 5

The compound listed as O=C(CC1C(=O)NCCN1S(=O)(=O)c1ccc(Cl)cc1Cl)NCC1CCC(C(c2ccccc2)N2CCCC2)CC1 (centres unmarked) shows inhibition at 1 µM equal to 70

* * *

- SYSTEM NAME: human μ-opiate receptor (Homo sapiens, UniProt P35372)
- Construct: purchased PerkinElmer Life Sciences, Zaventem, Belgium RB-HOM; host or cells: CHO-K1 cells (membrane preparation)
- Sequence (P35372 whole entry): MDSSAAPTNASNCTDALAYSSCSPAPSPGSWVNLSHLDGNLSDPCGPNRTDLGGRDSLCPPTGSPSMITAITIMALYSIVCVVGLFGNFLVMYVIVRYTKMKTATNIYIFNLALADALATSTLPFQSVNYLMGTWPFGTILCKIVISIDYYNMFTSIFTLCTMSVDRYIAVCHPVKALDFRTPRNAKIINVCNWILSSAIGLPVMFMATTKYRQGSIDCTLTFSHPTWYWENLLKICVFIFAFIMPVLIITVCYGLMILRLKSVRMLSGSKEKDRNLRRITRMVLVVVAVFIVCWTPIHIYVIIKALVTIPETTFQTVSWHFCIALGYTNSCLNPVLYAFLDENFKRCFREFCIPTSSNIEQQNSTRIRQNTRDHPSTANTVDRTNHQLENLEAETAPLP
- TEST DETAILS: Affinity for the human μ-opiate receptor ([3H]-naloxone displacement, SPA)
- EXPERIMENTAL CONDITIONS: test substance 1 μmol/l; inhibition of specific [3H]-naloxone binding; CHO-K1 receptor membrane preparation; read-out: μ-Opioid receptor [1 μM] % inhibition
MEASURED METRIC: inhibition at 1 µM (%)
The figure you give is taken to be in %; do not add the unit.

Some compounds with recorded inhibition at 1 µM:
COMPOUND | SYSTEM NAME | UNITS | inhibition at 1 µM
CN1CCN(C(c2ccccc2)C2CCC(NC(=O)CC3CCCCN3S(=O)(=O)c3ccc(Cl)c(Cl)c3)CC2)CC1 (stereo not shown) | human μ-opiate receptor (Homo sapiens, UniProt P35372) | % | 58
Cc1cc(S(=O)(=O)N2CCCCC2CCC(=O)N2CCC(C(c3ccc(F)cc3)N3CCN(C)CC3)CC2)c(C)cc1Cl (stereo not shown) | human μ-opiate receptor (Homo sapiens, UniProt P35372) | % | 6
O=C(CC1CCCCN1S(=O)(=O)c1ccc(Cl)c(Cl)c1)NC1CCC(C(CCc2ccccc2)N2CCCCC2)CC1 (stereo not shown) | human μ-opiate receptor (Homo sapiens, UniProt P35372) | % | 54
O=C(CC1CCCCN1S(=O)(=O)c1ccc(Cl)c(Cl)c1)NCC1CCC(C(c2ccccc2)N2CCOCC2)CC1 (stereo not shown) | human μ-opiate receptor (Homo sapiens, UniProt P35372) | % | 23
COc1cc(C)c(S(=O)(=O)N(C)CCCNC(=O)NC2CCC(C(c3ccccc3)N3CCCC3)CC2)c(C)c1C (stereo not shown) | human μ-opiate receptor (Homo sapiens, UniProt P35372) | % | 71

The compound listed as O=C(CC1CCCN1S(=O)(=O)c1ccc(Cl)c(Cl)c1)NCC1CCC(C(CCc2ccccc2)N2CCOCC2)CC1 (stereo not shown) shows inhibition at 1 µM equal to 7

The compound listed as O=C(CC1C(=O)Nc2ccccc2N1S(=O)(=O)c1ccc(Cl)c(Cl)c1)NCC1CCC(C(c2ccccc2)N2CCCC2)CC1 (stereo not shown) shows inhibition at 1 µM equal to 64

Ref: patent US8119633B2
